# protocol.summary: Caco-2 permeability assay
# Format: in vitro ADME, human
# condition.notes: human, Caco-2, pH 7.4, SI table; read-out: Recovery A:B

molecule: COC(=O)[C@H](Cc1c[nH]c2ccccc12)NC(=O)C(CC(C)C)CP(=O)(O)[C@@H](N)CCc1ccccc1 (stereo in doubt)
recovery at 2 h, 10 μM [%]: 2
//
molecule: CC(C)C[C@H](CP(=O)(O)[C@@H](N)CCc1ccccc1)C(=O)N[C@@H](Cc1c[nH]c2ccccc12)C(N)=O [DG013A 1, reference compound]
recovery at 2 h, 10 μM [%]: 97
//
molecule: CC(C)C[C@H](CP(=O)(O)[C@H](CCc1ccccc1)NC(=O)OCc1ccccc1)C(=O)N[C@@H](Cc1c[nH]c2ccccc12)C(N)=O
recovery at 2 h, 10 μM [%]: 79
//
molecule: CC(C)C[C@@H](CP(=O)(O)[C@@H](N)CCc1ccccc1)C(=O)N[C@@H](Cc1c[nH]c2ccccc12)C(N)=O [DG013B 2, reference compound]
recovery at 2 h, 10 μM [%]: 83
//
molecule: CC(C)CC(CP(=O)(O)[C@@H](N)CCc1ccccc1)C(=O)N[C@@H](Cc1c[nH]c2ccccc12)C(=O)O (stereo in doubt)
recovery at 2 h, 10 μM [%]: 83

* * *

# experimental.target: human ERAP2 (Homo sapiens)
# Sequence (Q6P179 whole entry): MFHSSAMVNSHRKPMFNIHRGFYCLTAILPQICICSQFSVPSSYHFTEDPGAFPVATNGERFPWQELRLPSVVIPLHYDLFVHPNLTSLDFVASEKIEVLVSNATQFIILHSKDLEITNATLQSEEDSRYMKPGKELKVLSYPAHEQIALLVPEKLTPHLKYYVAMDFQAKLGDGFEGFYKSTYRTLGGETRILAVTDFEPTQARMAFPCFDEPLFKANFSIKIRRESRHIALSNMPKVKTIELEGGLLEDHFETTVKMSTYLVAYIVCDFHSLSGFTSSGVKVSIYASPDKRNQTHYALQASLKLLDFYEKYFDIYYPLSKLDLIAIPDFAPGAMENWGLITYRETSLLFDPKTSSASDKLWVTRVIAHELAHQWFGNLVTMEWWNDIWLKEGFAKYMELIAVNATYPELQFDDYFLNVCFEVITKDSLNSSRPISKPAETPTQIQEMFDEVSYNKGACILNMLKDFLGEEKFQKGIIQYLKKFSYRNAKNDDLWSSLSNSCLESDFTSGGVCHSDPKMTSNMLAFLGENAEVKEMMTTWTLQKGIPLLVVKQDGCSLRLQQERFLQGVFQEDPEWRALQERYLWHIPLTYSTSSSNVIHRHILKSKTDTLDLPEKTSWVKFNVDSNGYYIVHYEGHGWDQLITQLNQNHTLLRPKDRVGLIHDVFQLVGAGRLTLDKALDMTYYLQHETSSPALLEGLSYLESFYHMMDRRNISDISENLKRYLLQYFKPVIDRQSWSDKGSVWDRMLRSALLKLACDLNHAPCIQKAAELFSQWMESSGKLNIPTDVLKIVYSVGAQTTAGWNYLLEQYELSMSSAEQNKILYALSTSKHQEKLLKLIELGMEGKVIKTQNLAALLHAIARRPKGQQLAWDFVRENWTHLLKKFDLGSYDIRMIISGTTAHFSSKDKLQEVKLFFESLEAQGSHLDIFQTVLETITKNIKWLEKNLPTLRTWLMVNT
property.name: IC50

chemical.string: CC(C)C[C@H](CP(=O)(O)[C@H](CCc1ccccc1)NC(=O)OCc1ccccc1)C(=O)N[C@@H](Cc1c[nH]c2ccccc12)C(N)=O
property.name: IC50
experimental.value: > 220 µM

* * *

# protocol.summary: Caco-2 permeability assay
# Format: in vitro ADME, human
# condition.notes: human, Caco-2; SI table; 10 μM, 2 h, pH 7.4
# Procedure: Whether the inhibition of ERAP1 by 1 would translate to in-cell activity would depend on its permeability, as well as its affinity. Papp (apparent permeability) was determined in the Caco-2 human colon carcinoma cell line (ATCC). Cells were maintained (DMEM with 10% fetal bovine serum, penicillin, and streptomycin) in a humidified atmosphere with 5% CO2/95% air for 10 days. […] Samples from the apical and basolateral chambers were analyzed using a Waters TQ-S LC-MS/MS system.
property.name: Papp B→A at 2 h, 10 μM

molecule: CC(C)C[C@@H](CP(=O)(O)[C@@H](N)CCc1ccccc1)C(=O)N[C@@H](Cc1c[nH]c2ccccc12)C(N)=O [DG013B 2, reference compound]
property.name: Papp B→A at 2 h, 10 μM
experimental.value: < 10 nm/s
--
molecule: COC(=O)[C@H](Cc1c[nH]c2ccccc12)NC(=O)C(CC(C)C)CP(=O)(O)[C@@H](N)CCc1ccccc1 (stereo in doubt) [compound 17]
property.name: Papp B→A at 2 h, 10 μM
experimental.value: < 10 nm/s
--
molecule: CC(C)CC(CP(=O)(O)[C@@H](N)CCc1ccccc1)C(=O)N[C@@H](Cc1c[nH]c2ccccc12)C(=O)O (stereo in doubt) [compound 18]
property.name: Papp B→A at 2 h, 10 μM
experimental.value: < 10 nm/s
--
molecule: CC(C)C[C@H](CP(=O)(O)[C@@H](N)CCc1ccccc1)C(=O)N[C@@H](Cc1c[nH]c2ccccc12)C(N)=O [DG013A 1, reference compound]
property.name: Papp B→A at 2 h, 10 μM
experimental.value: < 10 nm/s
--
molecule: CC(C)C[C@H](CP(=O)(O)[C@H](CCc1ccccc1)NC(=O)OCc1ccccc1)C(=O)N[C@@H](Cc1c[nH]c2ccccc12)C(N)=O [compound 3]
property.name: Papp B→A at 2 h, 10 μM
experimental.value: 43 nm/s
